- Target system: 5-HT2C receptor (Sus scrofa, UniProt K7GSR7)
- Sequence (K7GSR7 1-457): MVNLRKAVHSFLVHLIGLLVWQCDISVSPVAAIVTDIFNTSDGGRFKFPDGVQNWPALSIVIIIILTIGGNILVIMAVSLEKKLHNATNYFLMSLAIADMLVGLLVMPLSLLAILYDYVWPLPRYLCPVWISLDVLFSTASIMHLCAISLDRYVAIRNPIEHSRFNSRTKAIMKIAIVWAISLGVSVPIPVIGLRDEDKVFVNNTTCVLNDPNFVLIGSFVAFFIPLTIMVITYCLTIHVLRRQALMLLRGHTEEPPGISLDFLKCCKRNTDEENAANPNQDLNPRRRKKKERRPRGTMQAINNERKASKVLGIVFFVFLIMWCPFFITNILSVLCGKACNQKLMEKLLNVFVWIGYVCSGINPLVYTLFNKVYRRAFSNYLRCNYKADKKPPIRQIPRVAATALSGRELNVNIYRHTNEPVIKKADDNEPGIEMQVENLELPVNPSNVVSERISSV
// NB: equality with 30 nM counts as Not fulfilled; only Ki strictly below is Fulfilled

Answered cases to consult:
- Smiles str: "Nc1cc(N)nc(SCCN2CCN(Cc3ccccc3Cl)CC2)n1"
  Target system: "5-HT2C receptor (Sus scrofa, UniProt K7GSR7)"
  Category: "Not fulfilled"
- Smiles str: "Nc1nc(SCCN2CCN(Cc3ccccc3Cl)CC2)nc(N)c1Cc1ccccc1Cl"
  Target system: "5-HT2C receptor (Sus scrofa, UniProt K7GSR7)"
  Category: "Fulfilled"
- Smiles str: "Nc1cc(N)nc(SCCN2CCN(Cc3ccc(F)cc3)CC2)n1"
  Target system: "5-HT2C receptor (Sus scrofa, UniProt K7GSR7)"
  Category: "Not fulfilled"
- Smiles str: "COc1ccc(Cc2c(N)nc(SCCN3CCN(Cc4ccccc4)CC3)nc2N)cc1"
  Target system: "5-HT2C receptor (Sus scrofa, UniProt K7GSR7)"
  Category: "Not fulfilled"
- Smiles str: "Cc1ccccc1CN1CCN(CCSc2nc(N)c(Cc3ccccc3Cl)c(N)n2)CC1"
  Target system: "5-HT2C receptor (Sus scrofa, UniProt K7GSR7)"
  Category: "Fulfilled"
- Smiles str: "COc1ccc(Cc2c(N)nc(SCCN3CCN(Cc4ccccc4Cl)CC3)nc2N)cc1"
  Target system: "5-HT2C receptor (Sus scrofa, UniProt K7GSR7)"
  Category: "Fulfilled"

Lab note: Ki threshold 30 nM. Does this compound come in strictly under it? COc1cc(Cc2c(N)nc(SCCN3CCN(Cc4ccc([N+](=O)[O-])cc4)CC3)nc2N)cc(OC)c1OC
Not fulfilled

Report whether reported Ki is lower than 30 nM (strictly) for COc1cccc(CN2CCN(CCSc3nc(N)c(Cc4ccccc4Cl)c(N)n3)CC2)c1
Not fulfilled

# check: Ki < 30 nM for COc1cc(Cc2c(N)nc(SCCN3CCN(Cc4ccccc4Cl)CC3)nc2N)cc(OC)c1OC
Fulfilled

Ki under 30 nM? Item: COc1cccc(CN2CCN(CCSc3nc(N)c(Cc4cc(OC)c(OC)c(OC)c4)c(N)n3)CC2)c1
Not fulfilled

Quick check: Ki of COc1ccc(Cc2c(N)nc(SCCN3CCN(Cc4cccc(C(F)(F)F)c4)CC3)nc2N)cc1 under 30 nM?
Not fulfilled

Is the reported Ki for COc1ccc(Cc2c(N)nc(SCCN3CCN(Cc4ccccc4C)CC3)nc2N)cc1 strictly below 30 nM?
Fulfilled

Report whether reported Ki is lower than 30 nM (strictly) for Nc1nc(SCCN2CCN(Cc3ccccc3Cl)CC2)nc(N)c1Cc1ccc(Cl)cc1
Not fulfilled

----------
- Target system: 5-HT2A receptor (Oryctolagus cuniculus)
- Construct: The thoracic aorta segment after the aortic arch was removed
- Sequence (G1SYA7 1-469): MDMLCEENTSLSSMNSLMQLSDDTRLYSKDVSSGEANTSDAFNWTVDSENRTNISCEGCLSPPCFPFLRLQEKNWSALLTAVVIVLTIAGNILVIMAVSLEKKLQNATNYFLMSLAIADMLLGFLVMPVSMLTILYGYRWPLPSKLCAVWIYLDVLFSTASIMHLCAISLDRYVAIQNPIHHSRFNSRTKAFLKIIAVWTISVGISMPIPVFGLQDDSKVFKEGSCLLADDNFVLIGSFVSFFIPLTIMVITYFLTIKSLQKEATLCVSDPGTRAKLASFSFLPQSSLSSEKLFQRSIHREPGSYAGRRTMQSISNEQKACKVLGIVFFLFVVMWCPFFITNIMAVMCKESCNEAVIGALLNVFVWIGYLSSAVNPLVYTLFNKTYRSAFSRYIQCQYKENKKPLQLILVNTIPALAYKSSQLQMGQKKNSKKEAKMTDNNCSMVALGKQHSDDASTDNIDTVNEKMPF
- Protocol summary: 5-HT2A receptor antagonistic effect: inhibition of 5-HT-evoked contractions on isolated rabbit aortic strips
- Assay setup: 5-HT 10^-6 M; phenoxybenzamine 10^-8 M; tranylcypramine 10^-7 M; 10 minutes incubation
Overview of reported IC50 across a group of compounds:
Number only, in nM; omit the unit.

Recorded results for 4 compounds are shown here.
- Compound: "COc1ccc(Cc2c(N)nc(SCCN3CCN(Cc4ccccc4Cl)CC3)nc2N)cc1 [Example 72]"
  Unit tag: "nM"
  IC50: 84
- Compound: "COc1ccc(Cc2c(N)nc(SCCN3CCN(Cc4ccc(C)cc4)CC3)nc2N)cc1 [Example 23]"
  Unit tag: "nM"
  IC50: 670
- Compound: "COc1ccc(Cc2c(N)nc(SCCN3CCN(Cc4ccccc4C#N)CC3)nc2N)cc1 [Example 27]"
  Unit tag: "nM"
  IC50: 900
- Compound: "Cc1ccccc1CN1CCN(CCSc2nc(N)c(Cc3ccccc3Cl)c(N)n2)CC1 [Example 39]"
  Unit tag: "nM"
  IC50: 300

State IC50 on 5-HT2A receptor (Oryctolagus cuniculus). Entry: COc1ccc(Cc2c(N)nc(SCCN3CCN(Cc4cccc(C#N)c4)CC3)nc2N)cc1 [Example 26]
260

Provide the reported IC50 (system: 5-HT2A receptor (Oryctolagus cuniculus)) for COc1cccc(CN2CCN(CCSc3nc(N)c(Cc4ccccc4Cl)c(N)n3)CC2)c1 [Example 44]
650
